# Assay text: physchem
Please respond with reported pKa for every item in the list.
Give bare numbers.

Here's what some known entries look like.
Test smiles	pKa
Cc1cc(C(=O)Nc2ccc(-c3ccccc3S(N)(=O)=O)cc2)n(-c2ccccc2N)n1	4.7
Cc1cc(C(=O)Nc2ccc(-c3ccccc3S(N)(=O)=O)cc2)n(-c2ccc(N)nc2)n1	7
Cc1cc(C(=O)Nc2ccc(-c3ccccc3S(N)(=O)=O)cc2)n(-c2ccc3ccncc3c2)n1	5.4
Cc1cc(C(=O)Nc2ccc(-c3ccccc3S(N)(=O)=O)cc2)n(-c2cccc(N)c2)n1	4.7
Cc1cc(C(=O)Nc2ccc(-c3ccccc3S(N)(=O)=O)cc2)n(CCCCN)n1	10

Hi, could you look up pKa for each item in my list?
1. Cc1cc(C(=O)Nc2ccc(-c3ccccc3S(N)(=O)=O)cc2)n(-c2cccc(C(=N)NO)c2)n1
2. Cc1cc(C(=O)Nc2ccc(-c3ccccc3S(N)(=O)=O)cc2)n(-c2ccc3ccnc(N)c3c2)n1

1: 7; 2: 6.7

----------
# Assay text: in vivo
# Stated conditions: dog, iv
Please respond with reported half-life for every item in the list.
Give bare numbers, in h.

Here's what some known entries look like.
Test smiles	half-life, h
Cc1cc(C(=O)Nc2ccc(-c3ccccc3S(N)(=O)=O)cc2)n(-c2cccc(C(N)=O)c2)n1	3.1
Cc1cc(C(=O)Nc2ccc(-c3ccccc3S(N)(=O)=O)cc2)n(-c2ccc3onc(N)c3c2)n1	2.8
Cc1cc(C(=O)Nc2ccc(-c3ccccc3S(N)(=O)=O)cc2)n(-c2ccc3ccnc(N)c3c2)n1	3.4

Here is another molecule to look at.
Which half-life reading was recorded for the molecule COc1ccc(-n2nc(C)cc2C(=O)Nc2ccc(-c3ccccc3S(N)(=O)=O)cc2)cc1 ?
4.5

----------
# Assay text: physchem
# Stated conditions: octanol/water
Parameter measured: logP
Answers are plain numbers.

Which logP reading was recorded for the compound Cc1cc(C(=O)Nc2ccc(-c3ccccc3S(N)(=O)=O)cc2)n(-c2ccc3onc(N)c3c2)n1 ?
2.3

----------
# Assay text: in vivo
# Stated conditions: dog, po
Parameter measured: bioavailability (%)
Answers are plain numbers, in %.

Which bioavailability reading was recorded for the compound Cc1cc(C(=O)Nc2ccc(-c3ccccc3S(N)(=O)=O)cc2)n(-c2ccc3ccnc(N)c3c2)n1 ?
13

----------
# Experimental system: Prothrombin (Homo sapiens, UniProt P00734)
Parameter measured: Ki

Here's what some known entries look like.
Molecule	Experimental system	Ki
Cc1cc(C(=O)Nc2ccc(-c3ccccc3S(N)(=O)=O)cc2)n(-c2ccc3ccncc3c2)n1	Prothrombin (Homo sapiens, UniProt P00734)	> 21 µM
Cc1cc(C(=O)Nc2ccc(-c3ccccc3S(N)(=O)=O)cc2)n(-c2cccc(Cl)c2)n1	Prothrombin (Homo sapiens, UniProt P00734)	> 21 µM
Cc1cc(C(=O)Nc2ccc(-c3ccccc3S(N)(=O)=O)cc2)n(-c2ccc3ncnc(N)c3c2)n1	Prothrombin (Homo sapiens, UniProt P00734)	> 21 µM
Cc1cc(C(=O)Nc2ccc(-c3ccccc3S(N)(=O)=O)cc2)n(-c2cccc(CN)c2)n1	Prothrombin (Homo sapiens, UniProt P00734)	> 21 µM
Cc1cc(C(=O)Nc2ccc(-c3ccccc3S(N)(=O)=O)cc2)n(-c2ccc(N)nc2)n1	Prothrombin (Homo sapiens, UniProt P00734)	> 2.1 µM

Hi, could you look up Ki for each item in my list?
1. Cc1cc(C(=O)Nc2ccc(-c3ccccc3S(N)(=O)=O)cc2)n(-c2ccc3onc(N)c3c2)n1
2. Cc1cc(C(=O)Nc2ccc(-c3ccccc3S(N)(=O)=O)cc2)n(C2CCCNC2)n1 (stereo not given)
3. Cc1cc(C(=O)Nc2ccc(-c3ccccc3S(N)(=O)=O)cc2)n(-c2ccc3ccnc(N)c3c2)n1
4. Cc1cc(C(=O)Nc2ccc(-c3ccccc3S(N)(=O)=O)cc2)n(-c2ccccc2N)n1
5. Cc1cc(C(=O)Nc2ccc(-c3ccccc3S(N)(=O)=O)cc2)n(-c2ccc3nc(N)nc(N)c3c2)n1

> 21 µM
> 21 µM
6.5 µM
> 21 µM
> 21 µM
